- System: IL-17A-induced G-CSF production in human normal keratinocyte (NHK)
- run_description: NHK assay: IL-17A-induced G-CSF production in normal human keratinocytes
- Format: cell-based
- conditions: Homo sapiens, Keratinocyte, 24 h, IL-17A 5 ng/mL, average if tested more than once
In this section we review reported IC50 values for a set of compounds.

Examples from the recorded data:
>>> endpoint_result("C[C@@H](NC(=O)CCC(F)(F)F)c1ccc2[nH]c([C@@H](NC(=O)c3ccnn3C)C3CCC(F)(F)CC3)nc2c1 [Example 118]")
"50 to 100 nM"
>>> endpoint_result("Cc1nonc1C(=O)N[C@H](c1nc2ccc([C@H](NC(=O)CC3CC(F)(F)C3)C3CC3)cc2[nH]1)[C@@H]1CCCC(F)(F)C1 [Example 246]")
"< 50 nM"
>>> endpoint_result("C[C@@H](NC(=O)CCC(F)(F)F)c1ccc2[nH]c([C@@H](NC(=O)c3ncnn3CC3CC3)C3CCC(F)(F)CC3)nc2c1 [Example 30]")
"> 100 nM"
>>> endpoint_result("C[C@@H](NC(=O)CCC(F)(F)F)c1ccc2[nH]c([C@@H](NC(=O)c3nccn3CCC(F)(F)F)C3CCC(F)(F)CC3)nc2c1 [Example 227]")
"> 100 nM"
>>> endpoint_result("CC(C)n1ncnc1C(=O)NC(CC(C)(C)C(F)(F)F)c1nc2cc([C@@H](C)NC(=O)CCC(F)(F)F)ccc2[nH]1 (single isomer, unassigned) [Example 196]")
"> 100 nM"
>>> endpoint_result("C[C@@H](NC(=O)CCC(F)(F)F)c1ccc2[nH]c([C@@H](NC(=O)c3conc3CCC(F)(F)F)C3CCC(F)(F)CC3)nc2c1 [Example 214]")
"< 50 nM"
>>> endpoint_result("CC(C)(C[C@H](NC(=O)c1nonc1C1CC1)c1nc2ccc([C@H](NC(=O)CCC(F)F)C3CC3)cc2[nH]1)C(F)(F)F [Example 185]")
"> 100 nM"
>>> endpoint_result("CC(C)n1nccc1C(=O)N[C@H](c1nc2ccc([C@H](NC(=O)CC3CC(F)(F)C3)C3CC3)cc2[nH]1)C1CCC(F)(F)CO1 (single isomer, unassigned) [Example 261]")
"50 to 100 nM"

The measured IC50 associated with C[C@@H](NC(=O)CCC(F)(F)F)c1ccc2[nH]c([C@@H](NC(=O)c3ccn(CCC(F)(F)F)n3)C3CCC(F)(F)CC3)nc2c1 [Example 2] reads > 100 nM

###

- target_system: IL-17A : IL-17RA binding (Homo sapiens, UniProt Q16552, K93Q)
- Construct: Name: IL-17A-Flag
- Sequence (Q16552 with tags, fused parts or gaps K93Q): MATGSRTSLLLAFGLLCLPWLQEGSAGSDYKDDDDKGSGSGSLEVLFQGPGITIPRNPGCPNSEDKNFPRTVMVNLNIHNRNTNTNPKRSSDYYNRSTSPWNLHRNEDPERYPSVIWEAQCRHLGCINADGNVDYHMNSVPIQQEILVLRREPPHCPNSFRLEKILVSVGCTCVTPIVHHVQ
- run_description: IL-17A(FLAG-tagged):IL-17RA(His-tagged) binding disruption Eu-HTRF assay, Protocol 1
- conditions: FLAG-IL-17A 2.5 nM at 2x final concentration; average if tested more than once
pIC50: −log10 of the molar value.
assay_metric: pIC50

Below, each entry is followed by its recorded pIC50 result.
>>> endpoint_result("CC(C)(OC[C@H](NC(=O)c1nocc1C1CC1)c1nc2cc([C@H](NC(=O)CC3CC(F)(F)C3)C3CC3)ccc2[nH]1)C(F)(F)F")
"> 7.30"
>>> endpoint_result("Cn1nccc1C(=O)N[C@H](c1nc2cc(C(NC(=O)CCC(F)(F)F)C3CCC3)ccc2[nH]1)C1CCC(F)(F)CC1 (single isomer, unassigned) [Example 43]")
"< 7.00"
>>> endpoint_result("CC(C)n1nccc1C(=O)N[C@H](c1nc2ccc([C@H](NC(=O)CC3CC(F)(F)C3)C3CC3)cc2[nH]1)[C@H]1C[C@@H]2[C@H](C1)C2(F)F")
"7.00 to 7.30"
>>> endpoint_result("Cc1nonc1C(=O)N[C@H](c1nc2ccc([C@H](NC(=O)CC3CC(F)(F)C3)C3CC3)cc2[nH]1)[C@H]1C[C@H](CC(F)(F)F)C1 (single isomer, unassigned)")
"< 7.00"

Now, please, on to the next compound.
Record summary for CC(C)CCn1ncc(C(=O)N[C@H](c2nc3cc([C@@H](C)NC(=O)CCC(F)(F)F)ccc3[nH]2)C2CCC(F)(F)CC2)c1C(C)C : reported pIC50 = < 7.00

###

Listed here are molecules together with their documented IC50.
- target_system: IL-17A : IL-17RA binding (Homo sapiens, UniProt Q16552, K93Q)
- Construct: Name: IL-17A-Flag
- run_description: IL-17A(FLAG-tagged):IL-17RA(His-tagged) binding disruption Eu-HTRF assay, Protocol 1
- conditions: FLAG-IL-17A 2.5 nM at 2x final concentration; average if tested more than once

Worked cases, answers included:
>>> endpoint_result("C[C@@H](NC(=O)CCC(F)(F)F)c1ccc2nc([C@@H](NC(=O)c3cnn(CCC(C)(C)C)n3)C3CCC(F)(F)CC3)[nH]c2c1")
"> 100 nM"
>>> endpoint_result("C[C@@H](NC(=O)CCC(F)(F)F)c1ccc2[nH]c([C@@H](NC(=O)c3ccc(CCC(F)(F)F)s3)C3CCC(F)(F)CC3)nc2c1")
"> 100 nM"
>>> endpoint_result("Cc1nonc1C(=O)N[C@H](c1nc2cc([C@H](NC(=O)CC(C)C(F)(F)F)C3CC3)ccc2[nH]1)[C@@H]1CCCC(F)(F)C1 (single isomer, unassigned) [Example 259]")
"50 to 100 nM"

IC50 for IL-17A : IL-17RA binding (Homo sapiens, UniProt Q16552, K93Q) with input C[C@@H](NC(=O)CCC(F)(F)F)c1ccc2[nH]c([C@@H](NC(=O)c3cc(O)n(CCC(F)(F)F)n3)C3CCC(F)(F)CC3)nc2c1 equals > 100 nM

Record C[C@@H](NC(=O)CC(C(F)(F)F)C(F)(F)F)c1ccc2nc([C@@H](NC(=O)c3cccc(C#N)c3)C3CCC(F)(F)CC3)[nH]c2c1 has IL-17A : IL-17RA binding (Homo sapiens, UniProt Q16552, K93Q) IC50 equal to > 100 nM

Reported IC50 (IL-17A : IL-17RA binding (Homo sapiens, UniProt Q16552, K93Q)) for entry Cc1nonc1C(=O)N[C@@H](CC(C)(C)C(F)F)c1nc2ccc([C@H](NC(=O)CC3CC(F)(F)C3)C3CC3)cc2[nH]1 is < 50 nM

###

Reported pIC50 values follow for various compounds
- target_system: IL-17A : IL-17RA binding (Homo sapiens, UniProt Q16552, K93Q)
- Construct: Name: IL-17A-Flag
- run_description: IL-17A(FLAG-tagged):IL-17RA(His-tagged) binding disruption Eu-HTRF assay, Protocol 1
- conditions: FLAG-IL-17A 2.5 nM at 2x final concentration; average if tested more than once
pIC50: −log10 of the molar value.

>>> endpoint_result("CC(C)n1nccc1C(=O)N[C@H](c1nc2ccc([C@H](NC(=O)CC3CC(F)(F)C3)C3CC3)cc2[nH]1)C1CCC(F)(F)CO1 (single isomer, unassigned) [Example 262]")
"< 7.00"
>>> endpoint_result("Cc1nonc1C(=O)N[C@@H](CC(C)(C)C(F)(F)F)c1nc2ccc([C@H](NC(=O)CC3CC3(F)F)C3CC3)cc2[nH]1 (single isomer, unassigned) [Example 184]")
"7.00 to 7.30"
>>> endpoint_result("C[C@@H](NC(=O)CCC(F)(F)F)c1ccc2[nH]c([C@@H](NC(=O)c3cnnn3CC(F)(F)F)C3CCC(F)(F)CC3)nc2c1")
"< 7.00"

For this compound ( O=C(CC1CC(F)(F)C1)N[C@@H](c1ccc2nc([C@@H](NC(=O)c3nonc3C3CC3)[C@@H]3CCCC(F)(F)C3)[nH]c2c1)C1CC1 ), measured pIC50 is 7.00 to 7.30

// pIC50 lookup, compound = C[C@@H](NC(=O)CCC(F)(F)F)c1ccc2[nH]c([C@@H](NC(=O)c3cnn(CCC(F)(F)F)n3)[C@@H]3CCCC(F)(F)C3)nc2c1 , result: < 7.00

###

- Tested on: IL-17A-induced G-CSF production in human normal keratinocyte (NHK)
- run_description: NHK assay: IL-17A-induced G-CSF production in normal human keratinocytes
- Type: cell-based
- conditions: Homo sapiens, Keratinocyte, 24 h, IL-17A 5 ng/mL, average if tested more than once
pIC50: −log10 of the molar value.
assay_metric: pIC50

>>> endpoint_result("CC(C)c1nnsc1C(=O)N[C@H](c1nc2cc([C@@H](C)NC(=O)CCC(F)(F)F)ccc2[nH]1)C1CCC(F)(F)CC1")
"< 7.00"
>>> endpoint_result("C[C@@H](NC(=O)CCC(F)(F)F)c1ccc2[nH]c([C@@H](NC(=O)[C@@H]3C[C@@H]3F)C3CCC(F)(F)CC3)nc2c1")
"< 7.00"

Form field, pIC50 with IL-17A-induced G-CSF production in human normal keratinocyte (NHK), item O=C(CC1CC(F)(F)C1)N[C@@H](c1ccc2nc([C@@H](NC(=O)c3nonc3C3CC3)[C@H]3CCCC(F)(F)C3)[nH]c2c1)C1CC1 : > 7.30
